Source: patent US7118895B2

aglycon for assorted compounds
Tested on: β-Xylosidase derived from pectinase G
Assay: Reactivity toward various isoflavone glycosides (HPLC)
Format: biochemical
Parameters: unit not given here
Conditions: Reaction time 0 h; 55 °C, pH 4.0
Protocol: Diglycosidase was diluted with an acetate buffer of pH 4.0 to prepare a 0.75 AU/mL enzyme solution. […] The reaction was carried out at 55° C. and isolation of an aglycon isoflavone from an isoflavone glycoside in the reaction mixture was detected by HLPC at 0, 1, 3, and 6 hours of the reaction. […]
Answer field: number only, no words.

// solved cases for aglycon follow
> print(dat)
                             smilesnotation  measurednumber
1  O=C(O)CC(=O)OC[C@H]1O[C@@H](Oc2cc(O)c3c(=O)c(-c4ccc(O)cc4)coc3c2)[C@H](O)[C@@H](O)[C@@H]1O               0
2  O=C(O)CC(=O)OC[C@H]1O[C@@H](Oc2ccc3c(=O)c(-c4ccc(O)cc4)coc3c2)[C@H](O)[C@@H](O)[C@@H]1O               0

Now consider a different compound.
## Input Consider the compound CC(=O)OC[C@H]1O[C@@H](Oc2cc(O)c3c(=O)c(-c4ccc(O)cc4)coc3c2)[C@H](O)[C@@H](O)[C@@H]1O . State its measured aglycon.
## Output 0

###

Test system: Crude diglycosidase
Assay: Examination of pH in the conversion into isoflavone aglycons by diglycosidase using soybean materials
Type: biochemical, Penicillium multicolor IAM7153
Conditions: pH1.6; heat treatment of enzyme: yes; reaction time 6 h
measurementName: Decomposition efficiency of glycitin family in concentrated soybean protein (%)
Return type: number; implicit unit %.

// solved cases for Decomposition efficiency of glycitin family in concentrated soybean protein follow
> print(dat)
                             smilesnotation           targetdesc  displayunit  measurednumber
1       COc1cc2c(=O)c(-c3ccc(O)cc3)coc2cc1O  Crude diglycosidase            %            10.8
2  COc1cc2c(=O)c(-c3ccc(O)cc3)coc2cc1O[C@@H]1O[C@H](COC(=O)CC(=O)O)[C@@H](O)[C@H](O)[C@H]1O  Crude diglycosidase            %             0.4
3  COc1cc2c(=O)c(-c3ccc(O)cc3)coc2cc1O[C@@H]1O[C@H](CO)[C@@H](O)[C@H](O)[C@H]1O  Crude diglycosidase            %            57.9

Now consider a different compound.
## Input Consider the compound COc1cc2c(=O)c(-c3ccc(O)cc3)coc2cc1O[C@@H]1O[C@H](COC(C)=O)[C@@H](O)[C@H](O)[C@H]1O . State its measured Decomposition efficiency of glycitin family in concentrated soybean protein.
## Output 30.9

###

Test system: Crude diglycosidase
Test: Examination of substrate concentration in the conversion into isoflavone aglycons by diglycosidase using soybean materials;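 further: percent of the isoflavone family total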
Assay type: biochemical, Penicillium multicolor IAM7153
Details: concentrated soybean protein, substrate concentration 2%, heat treatment of enzyme no, reaction time 6 h
measurementName: Decomposition efficiency: ratio of each glycoside/aglycon within its isoflavone family

// solved cases for Decomposition efficiency: ratio of each glycoside/aglycon within its isoflavone family follow
> print(dat)
                             smilesnotation        result
1  COc1cc2c(=O)c(-c3ccc(O)cc3)coc2cc1O[C@@H]1O[C@H](COC(=O)CC(=O)O)[C@@H](O)[C@H](O)[C@H]1O  not detected
2  COc1cc2c(=O)c(-c3ccc(O)cc3)coc2cc1O[C@@H]1O[C@H](CO)[C@@H](O)[C@H](O)[C@H]1O  not detected
3  O=c1c(-c2ccc(O)cc2)coc2cc(O[C@@H]3O[C@H](CO)[C@@H](O)[C@H](O)[C@H]3O)cc(O)c12  not detected
4       COc1cc2c(=O)c(-c3ccc(O)cc3)coc2cc1O        100.0%
5  O=C(O)CC(=O)OC[C@H]1O[C@@H](Oc2cc(O)c3c(=O)c(-c4ccc(O)cc4)coc3c2)[C@H](O)[C@@H](O)[C@@H]1O  not detected

## Input Consider the compound CC(=O)OC[C@H]1O[C@@H](Oc2ccc3c(=O)c(-c4ccc(O)cc4)coc3c2)[C@H](O)[C@@H](O)[C@@H]1O . State its measured Decomposition efficiency: ratio of each glycoside/aglycon within its isoflavone family.
## Output not detected
